Reference source: paper PMC12802937

Target: T1, Bre1-LR E378K/E500K (budding yeast, UniProt Q07457 227-700, E378K | E500K)
T1 construct: source: E. coli BL21 Rosetta (DE3), purified (Ni-NTA, heparin, gel filtration)
T1 sequence (looked up): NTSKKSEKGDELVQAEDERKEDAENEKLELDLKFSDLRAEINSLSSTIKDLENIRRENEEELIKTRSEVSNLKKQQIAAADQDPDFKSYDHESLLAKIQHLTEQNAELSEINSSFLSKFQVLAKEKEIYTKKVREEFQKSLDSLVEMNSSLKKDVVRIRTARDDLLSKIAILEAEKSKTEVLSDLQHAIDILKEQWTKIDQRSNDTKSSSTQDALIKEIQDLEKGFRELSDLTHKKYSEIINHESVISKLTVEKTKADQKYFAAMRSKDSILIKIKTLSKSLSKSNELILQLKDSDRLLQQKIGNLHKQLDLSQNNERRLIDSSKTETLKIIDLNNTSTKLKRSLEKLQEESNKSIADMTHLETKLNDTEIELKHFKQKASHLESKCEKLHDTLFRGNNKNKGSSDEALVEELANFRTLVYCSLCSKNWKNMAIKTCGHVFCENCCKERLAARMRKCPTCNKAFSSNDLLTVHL
Test: ITC; Lge1-CT (50–60 μM) injected into Bre1-LR (15 μM); 25°C, 20 mM TRIS (pH 7.5), 200 mM sodium chloride
Details: both partners purified
Measure name: Kd (nM)
Write the value in nM as a bare number.

Quick one: Kd of Lge1-CT (Lge1 residues 261–332), intein-chitin binding domain (CBD) tag construct (domain or fragment, budding yeast, UniProt Q02796 261-332, looked up, Lge1, budding yeast, residues 261-332; residues 268–331 resolved in the electron density; the intein-CBD tag is named on the protein in the pull-down; also called intein-CBD-fused Lge1-CT; intein-CBD-tagged Lge1-CT; source: E. coli BL21 Rosetta (DE3): cleared cell extract on chitin resin (pull-down); purified (chitin, heparin, gel filtration) for ITC and SPR; co-purified with Bre1-LR for the …) KNVKKTNNTESECEKAREVFKESDSIDSALEELNLKINSNELELRLLNNQCDKHALNIQLTQEKLDSLLLMQ ?
98
